Hey, just so you know, these numbers are from PubChem BioAssay (NCI).

tested on: M14 melanoma; test: NCI tumour cell line growth inhibition, 48 h
valueType: TGI

Summary for this molecule, `c1ccc2c(c1)ccc1nc3ccccn3c12` : TGI is > 100 µM

Summary for this molecule, CC(C)(C)C1CCC(CI)(N=[N+]=[N-])CC1 (stereo not drawn) : TGI is > 100 µM

====

Reported TGI values for a set of molecules
system: ACHN renal; experiment: NCI tumour cell line growth inhibition, 48 h

Summary for this molecule, `CCNC(=S)Nc1c(C#N)c2n(c1C(=O)OCC)CCCCC2` : TGI is > 100 µM

Summary for this molecule, `COc1ccc(/C=N/NS(=O)(=O)c2ccc(/C=C3\NC(=O)N(C)C3=O)cc2)cc1` : TGI is > 100 µM

Summary for this molecule, CC12OC3(C(O)C1O)C(C(=O)O[C@H]3CO[Si](C)(C)C(C)(C)C)C2S(=O)(=O)c1ccccc1 (some centres undefined) : TGI is > 100 µM

New cases:
Summary for this molecule, `COC(=O)c1ccc(-n2c(C)nc(=O)c(-c3ccccc3)c2C)cc1` : TGI is > 100 µM

Summary for this molecule, CC(=O)c1c2c(cc3c1CC1(C3)Cc3ccc4c(c3C1=O)CCC4)CCC2 (centres undefined) : TGI is > 100 µM

Summary for this molecule, CC1(C)CC(=O)C(CC2C(=O)c3ccccc3C2=O)C(=O)C1C(=O)C(=O)Nc1cccc2ccc(O)cc12 (centres undefined) : TGI is > 100 µM

Summary for this molecule, `Cc1ccc2c(n1)C(=O)C(Cl)=C(Nc1ccc(N3CCN(C)CC3)cc1)C2=O` : TGI is 3.13 µM

Summary for this molecule, `COc1ccc(C(=O)/C=C/c2ccc(OCC#N)cc2)cc1OC` : TGI is 76.1 µM

Summary for this molecule, Cc1ccc(C2NC(=S)N3C(c4ccc(C)cc4)NC(=S)N23)cc1 (centres undefined) : TGI is 21.7 µM

====

tested on: A549 NSCLC; test: NCI tumour cell line growth inhibition, 48 h
valueType: TGI

Record `Cc1ccc(N(C)S(=O)(=O)c2ccccc2)cc1` has A549 NSCLC TGI equal to > 100 µM

Record `O=CNNC(=O)CSc1nc2ccc(I)cc2c(=O)n1Cc1ccccc1` has A549 NSCLC TGI equal to > 100 µM

Record `COc1cc(CCC(=O)O)c2cc3ccccc3cc2c1O` has A549 NSCLC TGI equal to 52.6 µM

Record Clc1cc2nnn(C3CCCCO3)c2cc1Cl (stereo not drawn) has A549 NSCLC TGI equal to > 100 µM

Record `C[C@@H](Oc1cc(-c2cnn(C3CC4(CNC4)C3)c2)cnc1N)c1c(Cl)ccc(F)c1Cl` has A549 NSCLC TGI equal to 12.6 µM

New cases:
Record CC(=O)N1N=C(c2ccc3ccccc3c2O)CC1c1ccc(Cl)cc1Cl (stereo not drawn) has A549 NSCLC TGI equal to > 100 µM

Record `CCOC(=O)c1ncn2c1[nH]c(=O)c1ccccc12` has A549 NSCLC TGI equal to > 100 µM

Record `O=S1CCN(Cc2ccc(-c3ccc4ncnc(Nc5ccc(OCc6ccccc6)c(F)c5)c4c3)o2)CC1` has A549 NSCLC TGI equal to > 25 µM

Record `CCOP(=O)(CCN1CCN(CCCCCOc2cc3c(cc2OC)C(=O)N2CCC[C@H]2C=N3)CC1)OCC` has A549 NSCLC TGI equal to 34.8 µM

Record `CCn1c(SCC(=O)NNC(=S)Nc2ccc(Cl)cc2)nc2ccccc2c1=O` has A549 NSCLC TGI equal to > 100 µM
